Target: Gamma-secretase
Test: Modulation of gamma secretase in HEK293 cells transfected with human APP with Swedish and London familial AD mutation assessed as reduction in Abeta42 levels incubated for 5 hrs by sandwich immuno-assay
Threshold-based label: IC50 under 70 nM gives yes (1), IC50 not under 70 nM gives no (0).

In [3]: df
Out[3]:
                                   molecule    group
0  COc1cc(/C=C2\CCCN3C2=NO[C@H](c2cc(F)c(F)c(F)c2)[C@@H]3C)ccc1-n1cnc(C)c1  yes (1)

Strictly below 70 nM in IC50? COc1cc(/C=C2\CCCN3C2=NOC[C@@H]3c2ccc(F)cc2)ccc1-n1cnc(C)c1
yes (1)

Strictly below 70 nM in IC50? COc1cc(C2=NOCC3C(Oc4ccc(Cl)cc4C(F)(F)F)CCCN23)ccc1-n1cnc(C)c1 (stereo not drawn)
yes (1)

Strictly below 70 nM in IC50? COc1cc(/C=C2\CCCN3C2=NO[C@@H](c2cc(F)cc(F)c2)[C@@H]3C)ccc1-n1cnc(C)c1
no (0)

Strictly below 70 nM in IC50? COc1cc(C2=CC3=NO[C@H](c4cc(F)c(F)c(F)c4)CN3CCC2)ccc1-n1cnc(C)c1
no (0)

Strictly below 70 nM in IC50? CCC(NC(=O)/C=C/c1ccc(-n2cnc(C)c2)c(OC)c1)c1ccc(F)cc1 (stereo not drawn)
no (0)

Strictly below 70 nM in IC50? COc1cc(/C=C2\CCCN3CC(c4cc(F)c(F)c(F)c4)ON=C23)ccc1-n1cnc(C)c1 (stereo not drawn)
yes (1)
